# targetSystem: T1, human CD123 on CHO cells (Homo sapiens, UniProt P26951)
# T1 construct: expressed in transfected cells; host or cells: CHO cells
# T1 sequence (P26951 19-378): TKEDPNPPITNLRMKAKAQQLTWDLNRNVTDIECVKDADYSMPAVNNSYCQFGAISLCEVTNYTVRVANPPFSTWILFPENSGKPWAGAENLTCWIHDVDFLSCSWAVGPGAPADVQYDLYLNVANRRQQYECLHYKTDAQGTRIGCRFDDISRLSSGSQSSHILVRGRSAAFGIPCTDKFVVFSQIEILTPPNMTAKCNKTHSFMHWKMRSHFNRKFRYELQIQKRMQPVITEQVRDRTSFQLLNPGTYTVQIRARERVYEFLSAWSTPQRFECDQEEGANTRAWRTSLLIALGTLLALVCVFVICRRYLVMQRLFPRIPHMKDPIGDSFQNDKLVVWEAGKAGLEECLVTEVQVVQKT
# measurementProtocol: Flow cytometry binding of IgG antibodies to CD123 expressing CHO cells
# setupConditions: 4-parameter logistic model
measuredEndpoint: HillSlope
Number only, please.

molecule	HillSlope
h32716-4-2 IgG: humanized 32716 anti-CD123 IgG, VH SEQ ID NO: 80, VL SEQ ID NO: 83 (antibody, V domains shown) VH: QVQLVQSGPELKKPGASVKVSCKASGYIFTNYGMNWVRQAPGQGLEWMGWINTYTGESTYSADFKGRFVFSLDTSVSTAYLQISSLKAEDTAVYYCARSGGYDPMDYWGQGTLVTVSS VL: DIQMTQSPSSLSASVGDRVTITCRASESVDNYGNTFMHWYQQKPGKAPKLLIYRASNLESGVPSRFSGSGSGTDFTFTISSLQPEDIATYYCQQSNEDPPTFGQGTKVEIK	2.4

Turning to the following molecule.
Query string: Which HillSlope value belongs to h32716-2-1 IgG: humanized 32716 anti-CD123 IgG, VH SEQ ID NO: 77, VL SEQ ID NO: 79 (antibody, V domains shown) VH: QVQLVQSGAEVKKPGSSVKVSCKASGYIFTNYGMNWVKQAPGQGLEWMGWINTYTGESTYSADFKGRFTFTLDESTSTAYMELSSLRSEDTAVYYCARSGGYDPMDYWGQGTLVTVSS VL: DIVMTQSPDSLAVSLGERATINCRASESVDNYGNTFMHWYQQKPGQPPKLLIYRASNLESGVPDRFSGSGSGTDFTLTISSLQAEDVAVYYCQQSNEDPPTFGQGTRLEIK ?
Result string: 1.7
